Value source: paper PMC10786891

experimental.target: T1, EsCas13d, nuclease-dead (Eubacterium siraeum, UniProt B0MS50, R295A;H300A;R849A;H854A)
T1 sequence: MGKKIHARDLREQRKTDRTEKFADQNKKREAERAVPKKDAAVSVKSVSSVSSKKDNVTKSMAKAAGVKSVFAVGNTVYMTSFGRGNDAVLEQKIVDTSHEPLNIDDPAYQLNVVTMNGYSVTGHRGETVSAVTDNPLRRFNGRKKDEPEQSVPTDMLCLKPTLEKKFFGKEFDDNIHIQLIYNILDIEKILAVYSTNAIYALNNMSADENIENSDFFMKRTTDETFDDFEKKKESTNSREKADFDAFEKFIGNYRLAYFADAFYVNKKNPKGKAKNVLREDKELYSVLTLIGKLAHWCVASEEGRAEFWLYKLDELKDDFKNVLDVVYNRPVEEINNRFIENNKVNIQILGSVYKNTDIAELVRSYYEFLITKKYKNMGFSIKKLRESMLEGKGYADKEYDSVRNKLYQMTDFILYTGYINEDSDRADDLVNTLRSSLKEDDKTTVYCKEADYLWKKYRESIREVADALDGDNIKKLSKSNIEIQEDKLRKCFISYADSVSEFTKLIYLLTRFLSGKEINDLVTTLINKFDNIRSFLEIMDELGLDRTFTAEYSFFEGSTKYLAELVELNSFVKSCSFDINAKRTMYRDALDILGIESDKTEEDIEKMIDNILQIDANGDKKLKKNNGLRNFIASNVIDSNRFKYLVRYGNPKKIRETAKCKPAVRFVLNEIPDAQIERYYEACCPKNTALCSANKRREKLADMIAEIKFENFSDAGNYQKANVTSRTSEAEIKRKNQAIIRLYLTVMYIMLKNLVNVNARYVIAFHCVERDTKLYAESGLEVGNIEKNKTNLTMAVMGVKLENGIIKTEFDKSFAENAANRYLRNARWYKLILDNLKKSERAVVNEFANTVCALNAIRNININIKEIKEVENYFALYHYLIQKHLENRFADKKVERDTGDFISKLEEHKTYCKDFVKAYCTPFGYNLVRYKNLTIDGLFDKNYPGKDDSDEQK
assay.explanation: crRNA (strand 1, pre-loaded); Mg2+; 40 mM Tris-HCl pH 7.5, 150 mM NaCl, 6 mM MgCl2, 1 mM DTT, 0.1% Tween-20, 0.2 mg/ml BSA; 25 C; 10 min per concentration, then washed
condition.label: tags: His6-TwinStrep-SUMO cleaved; N-terminal SNAP kept (SNAP-Surface 488); label: 3' end held by stalled T7 RNA polymerase
metric.name: Kd (nM)
Kindly answer with a numeric value in nM, unit omitted.

binder="target 1 C2A,G5A (mixed) RNA 1: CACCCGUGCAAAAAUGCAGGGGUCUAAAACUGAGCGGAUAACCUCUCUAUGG RNA 2: GGGAAUGGAUCCACAUCUACGAAUUCGUACCAUAGAGAGGUUAUCCACUAACCGAGAUCGGAAGAGCACACGU" metric_name=Kd unit_of_measurement=nM test_value=31.6

# get_value(readout='Kd', item= target 1 insG 3' of 21,insA 3' of 3 (mixed) RNA 1: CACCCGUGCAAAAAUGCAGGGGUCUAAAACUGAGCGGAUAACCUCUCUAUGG RNA 2: GGGAAUGGAUCCACAUCUACGAAUUCGUACCGAUAGAGAGGUUAUCCGCUACACCGAGAUCGGAAGAGCACACGU )
54
